Measured values drawn from patent US6242199A for this set.

test_system: growth hormone secretagogue receptor (GHSR), porcine anterior pituitary membranes (Sus scrofa)
Construct: Frozen anterior pituitary glands from male swine (50-80 Kg); from tissue; host or cells: anterior pituitary glands of male swine (50-80 kg), crude membranes
test_details: [35S]-Compound A radioreceptor binding, porcine anterior pituitary membranes
run_conditions: 1 μM
value_kind: competition with [35S]-Compound A at 1 μM (in words)

Check out these entries, answers already filled in.
Entry CC(C)NCC(O)c1ccc(O)c(O)c1 (centres unmarked) : reported competition with [35S]-Compound A at 1 μM (in words) = ?
did not compete

Entry COc1ccc(OC)c(C(O)C(C)N)c1 (centres unmarked) : reported competition with [35S]-Compound A at 1 μM (in words) = ?
did not compete

Entry CC(COc1ccccc1)N(CCCl)Cc1ccccc1 (centres unmarked) : reported competition with [35S]-Compound A at 1 μM (in words) = ?
did not compete

Entry Clc1cccc(Cl)c1N=C1NCCN1 : reported competition with [35S]-Compound A at 1 μM (in words) = ?
did not compete

Entry CC(C)NC[C@H](O)COc1cccc2ccccc12 (racemic) : reported competition with [35S]-Compound A at 1 μM (in words) = ?
did not compete

Entry CC(C)C[C@H]1C(=O)N2CCC[C@H]2[C@]2(O)O[C@](NC(=O)[C@@H]3C=C4c5cccc6[nH]c(Br)c(c56)C[C@H]4N(C)C3)(C(C)C)C(=O)N12 : reported competition with [35S]-Compound A at 1 μM (in words) = ?
did not compete

Continuing:
Entry NC(=O)[C@@H]1CCCN1C(=O)[C@H](Cc1cnc[nH]1)NC(=O)[C@@H]1CCC(=O)N1 : reported competition with [35S]-Compound A at 1 μM (in words) = ?
did not compete

Entry COc1cccc(OC)c1OCCNCC1CSc2ccccc2O1 (centres unmarked) : reported competition with [35S]-Compound A at 1 μM (in words) = ?
did not compete

---

test_system: growth hormone secretagogue receptor (GHSR), rat pituitary membranes (Rattus norvegicus, UniProt O08725)
Construct: from the Wistar male rats (150-200 g)
Sequence (O08725 whole entry): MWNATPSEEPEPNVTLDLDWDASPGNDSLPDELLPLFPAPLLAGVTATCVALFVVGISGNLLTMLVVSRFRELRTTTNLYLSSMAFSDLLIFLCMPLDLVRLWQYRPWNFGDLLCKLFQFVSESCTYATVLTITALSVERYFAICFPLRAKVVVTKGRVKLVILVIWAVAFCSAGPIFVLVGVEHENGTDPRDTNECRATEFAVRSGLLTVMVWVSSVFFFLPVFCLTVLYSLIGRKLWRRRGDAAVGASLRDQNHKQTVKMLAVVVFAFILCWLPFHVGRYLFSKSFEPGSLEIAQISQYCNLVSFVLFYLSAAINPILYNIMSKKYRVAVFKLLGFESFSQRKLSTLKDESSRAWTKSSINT
test_details: [35S]-Compound A radioreceptor binding, rat pituitary membranes
run_conditions: rat pituitary membranes; n=3
value_kind: pKd
Recall that pKd is obtained by taking minus log10 of the concentration measured in molar.

Entry CC(C)(N)C(=O)N[C@H](COCc1ccccc1)C(=O)N1CCC2(CC1)CN(S(C)(=O)=O)c1ccccc12 : reported pKd = ?
9.74

---

test_system: growth hormone secretagogue receptor (GHSR), porcine anterior pituitary membranes (Sus scrofa, UniProt Q95254)
Construct: Frozen anterior pituitary glands from male swine (50-80 Kg)
Sequence (Q95254 whole entry): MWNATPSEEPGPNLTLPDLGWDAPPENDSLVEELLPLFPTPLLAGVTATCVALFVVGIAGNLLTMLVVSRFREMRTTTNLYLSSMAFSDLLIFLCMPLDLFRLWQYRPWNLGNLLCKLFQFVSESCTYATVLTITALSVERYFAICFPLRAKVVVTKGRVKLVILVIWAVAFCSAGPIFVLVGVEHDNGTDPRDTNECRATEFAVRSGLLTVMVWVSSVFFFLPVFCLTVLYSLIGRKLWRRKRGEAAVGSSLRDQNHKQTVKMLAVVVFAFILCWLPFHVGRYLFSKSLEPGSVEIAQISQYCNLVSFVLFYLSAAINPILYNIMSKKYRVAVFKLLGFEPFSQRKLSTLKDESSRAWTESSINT
test_details: [35S]-Compound A radioreceptor binding, porcine anterior pituitary membranes
run_conditions: competition with [35S]-Compound A; read-out: inhibition constant, Ki
Method: Frozen anterior pituitary glands from male swine (50-80 Kg) or from the Wistar male rats (150-200 g) were homogenized in a tissue homogenizer in ice-cold buffer (50 mM Tris-HCl buffer, pH 7.4, 5 mM MgCl2, 2.5 mM EDTA, 0.1% bovine serum albumin and 30 μg/ml bacitracin). The homogenates were centrifuged for 5 min at 1,400×g and the resulting supernatants were then centrifuged at 34,000×g for 20 min. […] Protein was determined by a Bio-Rad method (Bio-Rad Laboratories, Richmond, Calif.). […]
value_kind: pKi
Recall that pKi is obtained by taking minus log10 of the concentration measured in molar.

Entry CC(C)(N)C(=O)N[C@H](COCc1ccccc1)C(=O)N1CCC2(CC1)CN(S(C)(=O)=O)c1ccccc12 : reported pKi = ?
9.62
